# study target: human GCG receptor (human, UniProt P47871 26-477)
# Sequence (P47871 26-477): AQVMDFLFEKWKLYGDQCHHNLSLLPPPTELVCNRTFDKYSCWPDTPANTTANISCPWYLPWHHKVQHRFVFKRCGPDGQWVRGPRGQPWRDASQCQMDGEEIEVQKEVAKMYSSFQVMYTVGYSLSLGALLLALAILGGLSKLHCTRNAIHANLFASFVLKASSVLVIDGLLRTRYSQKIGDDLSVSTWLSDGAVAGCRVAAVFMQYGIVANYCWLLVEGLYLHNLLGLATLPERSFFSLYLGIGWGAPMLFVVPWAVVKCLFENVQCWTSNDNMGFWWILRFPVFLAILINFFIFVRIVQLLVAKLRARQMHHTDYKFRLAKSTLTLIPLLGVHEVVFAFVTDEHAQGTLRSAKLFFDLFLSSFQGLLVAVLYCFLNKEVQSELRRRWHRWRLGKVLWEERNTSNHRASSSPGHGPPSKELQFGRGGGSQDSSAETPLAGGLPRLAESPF
# protocol summary: cell-based or functional assay
Bridges are numbered along the chain shown (N, C = ends). Where no end group is shown, it is not given here. [ ]: non-standard residue; d: D form. The star is where a group is joined. Acetyl(2-(4-imidazolyl)) = O=C(Cc1c[nH]cn1)*; Aib = CC(C)(N)C(=O)O
endpoint name: In vitro activity relative to native peptide (%) vs. Glucagon

Completed entries (count: 2):
binder	observed value
Y[Aib]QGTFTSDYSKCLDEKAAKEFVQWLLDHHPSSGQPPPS (bridge 16-20) [triple agonist of SEQ ID NO: 68]	8.8%
[Acetyl(2-(4-imidazolyl))]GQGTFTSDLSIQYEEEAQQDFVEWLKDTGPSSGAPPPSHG [triple agonist of SEQ ID NO: 20]	< 0.1%

Proceeding to the next binder to report its In vitro activity relative to native peptide (%) vs. Glucagon.
Request: Return the recorded In vitro activity relative to native peptide (%) vs. Glucagon value; entry: [Acetyl(2-(4-imidazolyl))]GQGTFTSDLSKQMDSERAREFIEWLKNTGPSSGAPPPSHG [triple agonist of SEQ ID NO: 18]
Response: < 0.1%
